# System: MS2 coat protein
# assay.text: apparent KD of MS2 coat protein; designed switch direction (-1 OFF switch, 1 ON switch): -1; higher = weaker reporter binding
# assay.conditions: Eterna round: R95; input ligand: microRNA oligo, concentration not stated
# reported apparent KD of MS2 coat protein; entries follow
Express it in µM; write the number only.

Solved entries:
* GAUGUGGGUUUCCGGAGUAACAUGAGGAUCACCCAUGUAGAAGUUGGAGGGAUCAAGCUUUUUGGUCGUCACACGUG [JR_SV3TOV1_Sub053] (puzzle: Sensor v3, turn-off variant 1) | 0.227
* GAGGUACAUGAGGAUCACCCAUGUGAGGAUAUAGGUAGAGAUUGAGAGAGGUGGAGGACUAGAAGGCACAGUGG [JR_Exclu1_Sub040] (puzzle: Exclusion 1) | 0.046
* AUUAAGUGAGGAUAUACAAGAUCGCUUACCGCCAAAGGCGGACAUGAGGAUCACCCAUGUAGAAGGCACAAAUU [Vesoanor] (puzzle: Exclusion 2) | 0.0409

Give the measured apparent KD of MS2 coat protein of CCAGGCGUCUUGGCUCGUCUUAUUUGGAGAGGAUUGAUAACAUGAGGAUCACCCAUGUGUGUGGGAGCGUUGCAGUG [JR_SV3TOV2_Sub019] (puzzle: Sensor v3, turn-off variant 2) .
0.137

Entry GGCUAGUCAGGAUAUACGAACAUGUCAAAAGACGUGAAGGGACAUGAGGAUCACCCAUGUAGAAGGGACUAGCA [salish99_ex2_r3_001] (puzzle: Exclusion 2) please
0.0235
